# Measured Target: human 5-HT4(a) (Homo sapiens)
# Method: Evaluation of agonistic activity in CHO-K1 cells expressing human 5-HT4(a) (GeneBlAzer HTR4-CRE-bla CHO-K1, beta-lactamase reporter)
# Conditions: CHO-K1 cells stably expressing human 5-HT4(a)
Property Measured: EC50 (nM)
State just the number; it will be interpreted in nM.

compound="CCCc1cc(N2CCC[C@H]2COC)nc(Nc2cccc(N)c2)n1 [Example 364]" reported=0.122

Quick check: EC50 of CCCc1cc(N2CC[C@H](NC(=O)CO)C2)nc(Nc2ccc(F)c(C#N)c2)n1 [Example 473] ?
0.022

Quick check: EC50 of CCCc1cc(N2CCC(NC(C)=O)C2)nc(Nc2ccc(N)c([N+](=O)[O-])c2)n1 (centres unmarked) [Example 293] ?
0.0043

Quick check: EC50 of CCCc1cc(N2CC[C@H](NC(C)=O)C2)nc(Nc2ccc(C)c(C)c2)n1 [Example 281] ?
0.196

Quick check: EC50 of CCCc1cc(N2CC[C@H](NCc3ccc(OC)cc3)C2)nc(Nc2cccc(C#N)c2)n1 [Example 97] ?
0.046

Quick check: EC50 of CCCc1cc(N2CC[C@H](NC(=O)Cc3cccnc3)C2)nc(Nc2cccc(C#N)c2)n1 [Example 77] ?
0.15

Quick check: EC50 of CCCc1cc(N2CC[C@H](N)C2)nc(Nc2ccc(N)c([N+](=O)[O-])c2)n1 [Example 359] ?
0.0021

Quick check: EC50 of CCCc1cc(N2CC[C@H](NC(C)=O)C2)nc(Nc2ccc(C)c(O)c2)n1 [Example 274] ?
0.087

---

# Measured Target: human 5-HT4(a) (Homo sapiens)
# Method: Evaluation of agonistic activity in CHO-K1 cells expressing human 5-HT4(a) (GeneBlAzer HTR4-CRE-bla CHO-K1, beta-lactamase reporter)
# Conditions: CHO-K1 cells stably expressing human 5-HT4(a)
Listed here are molecules together with their documented pEC50.
Quick note: pEC50 means taking -log10 of the concentration in moles per liter.

mol=CCCc1cc(N2CCC[C@H]2COC)nc(Nc2ccc(F)c(C(F)(F)F)c2)n1 property_measured=pEC50 reported=9.82

Quick check: pEC50 of `CCCC(=O)N[C@H]1CCN(c2cc(CCC)nc(Nc3cccc(C#N)c3)n2)C1` ?
9.82

Quick check: pEC50 of `CCCc1cc(N2CCC[C@H]2COC)nc(Nc2cccc(C#N)c2)n1` ?
9.80

Quick check: pEC50 of `CCCCc1cc(N2CC[C@H](NCC)C2)nc(Nc2ccc(N)c(C#N)c2)n1` ?
11.77

Quick check: pEC50 of `CCCc1cc(N2CC[C@H](NS(C)(=O)=O)C2)nc(Nc2ccc(C)c(C#N)c2)n1` ?
10.54

Quick check: pEC50 of `CCCc1cc(N2CC[C@H](NCC3CC3)C2)nc(Nc2ccc(C)c(C#N)c2)n1` ?
11.89

Quick check: pEC50 of `CCCc1cc(N2CCC[C@H]2C)nc(Nc2cccc([N+](=O)[O-])c2)n1` ?
10.10

Quick check: pEC50 of `CCCc1cc(N2CCC[C@H]2COC)nc(Nc2ccc(N)c(C(F)(F)F)c2)n1` ?
10.48

---

Listed here are compounds together with their documented pEC50.
# Measured Target: human 5-HT4(a) (Homo sapiens, UniProt Q13639)
# Sequence (Q13639 1-387 isoform Q13639-2): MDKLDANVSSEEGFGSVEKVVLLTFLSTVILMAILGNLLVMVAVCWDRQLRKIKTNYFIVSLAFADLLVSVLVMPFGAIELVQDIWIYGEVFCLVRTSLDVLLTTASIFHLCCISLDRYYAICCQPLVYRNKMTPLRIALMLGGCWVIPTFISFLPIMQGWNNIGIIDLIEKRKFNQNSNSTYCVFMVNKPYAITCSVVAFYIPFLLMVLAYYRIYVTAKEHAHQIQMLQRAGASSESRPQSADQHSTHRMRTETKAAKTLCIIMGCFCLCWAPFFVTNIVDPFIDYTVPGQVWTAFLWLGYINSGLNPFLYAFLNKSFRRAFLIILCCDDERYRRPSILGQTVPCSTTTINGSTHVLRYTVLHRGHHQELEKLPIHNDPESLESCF
# Method: Evaluation of agonistic activity in CHO-K1 cells expressing human 5-HT4(a) (GeneBlAzer HTR4-CRE-bla CHO-K1, beta-lactamase reporter)
# Conditions: CHO-K1 cells stably expressing human 5-HT4(a)
Quick note: pEC50 means taking -log10 of the concentration in moles per liter.

Previously resolved entries follow.
compound="CCCc1cc(N2CC[C@H](NCC)C2)nc(Nc2ccc(N)c([N+](=O)[O-])c2)n1 [Example 176]" reported=10.74
compound=CCCCc1cc(N2CC[C@H](NC(C)=O)C2)nc(Nc2ccc(Cl)c(N)c2)n1 reported=11.01
compound=CCCc1cc(N2CC[C@H](NC(=O)CN3CCCCC3)C2)nc(Nc2ccc(C)c(C#N)c2)n1 reported=10.62

Enter reported pEC50 observed with human 5-HT4(a) (Homo sapiens, UniProt Q13639) for `CCCCc1cc(N2CC[C@H](NC)C2)nc(Nc2cc(N)cc(C(F)(F)F)c2)n1`
11.48

---

# Measured Target: human 5-HT4(a) (Homo sapiens)
# Method: Evaluation of agonistic activity in CHO-K1 cells expressing human 5-HT4(a) (GeneBlAzer HTR4-CRE-bla CHO-K1, beta-lactamase reporter)
# Conditions: CHO-K1 cells stably expressing human 5-HT4(a)
Counter-ions that a name gives are not always drawn.
Listed here are compounds together with their documented log10 EC50.
Record value = log10 of EC50 given in nM.

compound="CCCc1cc(N2CCC[C@H]2CO)nc(Nc2cc(Cl)ccc2C)n1 [Example 204]" measured_target="human 5-HT4(a) (Homo sapiens)" property_measured="log10 EC50" reported=-0.33
compound="CCCc1cc(N2CC[C@H](N)C2)nc(Nc2ccc(F)cc2)n1 [Example 47, dihydrochloride]" measured_target="human 5-HT4(a) (Homo sapiens)" property_measured="log10 EC50" reported=-0.42
compound="CCCc1cc(N2CC[C@H](NC(=O)Cc3ccccc3)C2)nc(Nc2cccc(C#N)c2)n1 [Example 66]" measured_target="human 5-HT4(a) (Homo sapiens)" property_measured="log10 EC50" reported=-1.00

Enter reported log10 EC50 observed with human 5-HT4(a) (Homo sapiens) for CCCc1cc(N2CC[C@H](NC(C)=O)C2)nc(Nc2ccc(OC)c(N)c2)n1 [Example 289]
-1.21

Enter reported log10 EC50 observed with human 5-HT4(a) (Homo sapiens) for CCCc1cc(N2CC[C@H](NC(CC)CC)C2)nc(Nc2cccc(C#N)c2)n1 [Example 128]
-1.41

Enter reported log10 EC50 observed with human 5-HT4(a) (Homo sapiens) for CCCc1cc(N2CCC[C@H]2COC)nc(Nc2ccc(C)c(N)c2)n1 [Example 366]
-1.11

Enter reported log10 EC50 observed with human 5-HT4(a) (Homo sapiens) for CCCCc1cc(N2CC[C@H](NCC)C2)nc(Nc2ccc(F)c(C(F)(F)F)c2)n1 [Example 468]
-2.21

Enter reported log10 EC50 observed with human 5-HT4(a) (Homo sapiens) for CCCc1cc(N2CC[C@H](NC)C2)nc(Nc2ccc(F)cc2)n1 [Example 22]
-0.48

Enter reported log10 EC50 observed with human 5-HT4(a) (Homo sapiens) for CCCc1cc(N2CCC[C@H]2C)nc(Nc2cccc(C(F)(F)F)c2)n1 [Example 316]
-0.68

Enter reported log10 EC50 observed with human 5-HT4(a) (Homo sapiens) for CCCc1cc(N2CCC[C@H]2C)nc(Nc2ccc(C)c(N)c2)n1 [Example 334]
-1.07

Enter reported log10 EC50 observed with human 5-HT4(a) (Homo sapiens) for CCCc1cc(N2CC[C@H](NCC)C2)nc(Nc2ccc(N)c(C#N)c2)n1 [Example 489]
-2.82

---

# Measured Target: human 5-HT4(a) (Homo sapiens, UniProt Q13639)
# Method: Evaluation of agonistic activity in CHO-K1 cells expressing human 5-HT4(a) (GeneBlAzer HTR4-CRE-bla CHO-K1, beta-lactamase reporter)
# Conditions: CHO-K1 cells stably expressing human 5-HT4(a)
Property Measured: log10 EC50 (log10 of the value in nM)
Record value = log10 of EC50 given in nM.

compound="CCCc1cc(N2CCC[C@H]2COC)nc(Nc2cccc(C(F)(F)F)c2)n1 [Example 36]" reported=-0.61
compound="CCCCc1cc(N2CC[C@H](NC(=O)OC(C)(C)C)C2)nc(Nc2ccc(C)c(C#N)c2)n1 [Example 232]" reported=-0.89
compound="C/C=C(\\C)C(=O)N[C@H]1CCN(c2cc(CCC)nc(Nc3cccc(C#N)c3)n2)C1 [Example 149]" reported=-0.56
compound="CCCc1cc(N2CC[C@H](NC(C)=O)C2)nc(Nc2ccc(F)c(C#N)c2)n1 [Example 251]" reported=-2.00
compound="CCCCc1cc(N2CC[C@H](NCC3CC3)C2)nc(Nc2cccc(C#N)c2)n1 [Example 237]" reported=-2.89
compound="CCCc1cc(N2CC[C@H](NC(C)=O)C2)nc(Nc2ccc3cc[nH]c3c2)n1 [Example 243]" reported=-1.96
compound="CCCCc1cc(N2CC[C@H](NCC)C2)nc(Nc2cc(N)cc(C(F)(F)F)c2)n1 [Example 466]" reported=-2.24
compound="CCCc1cc(N2CC[C@H](NC(C)=O)C2)nc(Nc2ccc(Cl)c([N+](=O)[O-])c2)n1 [Example 241]" reported=-1.92
compound="CCCc1cc(N2CCC[C@H]2C)nc(Nc2ccc(Cl)c([N+](=O)[O-])c2)n1 [Example 313]" reported=-1.11

Quick check: log10 EC50 of CCCCc1cc(N2CC[C@H](NC(C)=O)C2)nc(Nc2ccc(F)c(C#N)c2)n1 [Example 443] ?
-2.00
